details: in methanol, 308.15 K
measurement label: solubility (mole fraction)

Consider CCC[C@@H]1CC(=O)N([C@@H](CC)C(N)=O)C1 . Its measured solubility (mole fraction) is 0.445

* * *

conditions: in n-propanol, 323.15 K
measurement label: solubility (mole fraction)
Answers are plain numbers.

Consider CCC[C@@H]1CC(=O)N([C@@H](CC)C(N)=O)C1 . Its measured solubility (mole fraction) is 0.52

* * *

details: in methanol, 303.15 K
measurement label: solubility (mole fraction)
Give bare numbers.

Consider CCC[C@@H]1CC(=O)N([C@@H](CC)C(N)=O)C1 . Its measured solubility (mole fraction) is 0.416

* * *

conditions: in n-hexane, 313.15 K
measurement label: solubility (mole fraction)

Consider CCC[C@@H]1CC(=O)N([C@@H](CC)C(N)=O)C1 . Its measured solubility (mole fraction) is 0.000413
